molecular target: Acetylcholinesterase (AChE) (Homo sapiens, UniProt P22303); assay: AChE inhibition assay; type: biochemical; details: determined by BuChE/AChE (IC50 ratio)
Sequence (P22303 32-614, species assumed): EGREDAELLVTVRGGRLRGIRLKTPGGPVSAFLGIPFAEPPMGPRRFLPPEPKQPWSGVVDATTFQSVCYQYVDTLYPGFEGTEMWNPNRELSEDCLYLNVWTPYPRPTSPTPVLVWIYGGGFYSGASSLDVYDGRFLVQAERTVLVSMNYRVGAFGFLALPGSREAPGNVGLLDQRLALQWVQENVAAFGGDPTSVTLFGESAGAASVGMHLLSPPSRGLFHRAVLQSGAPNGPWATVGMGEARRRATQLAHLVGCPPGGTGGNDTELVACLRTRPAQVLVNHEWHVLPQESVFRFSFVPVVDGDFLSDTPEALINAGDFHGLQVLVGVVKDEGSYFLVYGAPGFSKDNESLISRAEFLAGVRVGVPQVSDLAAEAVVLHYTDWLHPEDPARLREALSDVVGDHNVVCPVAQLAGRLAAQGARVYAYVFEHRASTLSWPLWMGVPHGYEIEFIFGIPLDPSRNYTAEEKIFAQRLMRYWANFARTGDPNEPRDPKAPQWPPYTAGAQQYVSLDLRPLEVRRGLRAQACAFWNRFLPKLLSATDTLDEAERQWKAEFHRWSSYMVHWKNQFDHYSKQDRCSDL
metric: Selectivity Index (SI)
Respond using a number only.

Worked set:
O=C(/C=C/c1ccccc1)c1ccc(OCCNC2CCN(Cc3ccc(Br)cc3)CC2)cc1 = 1.56
COc1ccc(CN2CCC(NCCOc3ccc(C(=O)/C=C/c4ccccc4)cc3)CC2)cc1 = 2.23
O=C(/C=C/c1ccccc1)c1ccc(OCCNC2CCN(Cc3ccccc3)CC2)cc1 = 0.67

(Q) Item `O=C(/C=C/c1ccccc1)c1ccc(OCCNC2CCN(Cc3ccc(F)cc3)CC2)cc1` with Acetylcholinesterase (AChE) (Homo sapiens, UniProt P22303) - Selectivity Index (SI)?
(A) 1.86

(Q) Item `O=C(/C=C/c1ccccc1)c1ccc(OCCNC2CCN(Cc3ccc([N+](=O)[O-])cc3)CC2)cc1` with Acetylcholinesterase (AChE) (Homo sapiens, UniProt P22303) - Selectivity Index (SI)?
(A) 0.87

* * *

For butylcholinesterase (BuChE) (Homo sapiens), measured pIC50 is reported for the entries below.
Reminder that pIC50 is minus the log10 of a molar concentration.

Worked set:
COc1ccc(CN2CCC(NCCOc3ccc(C(=O)/C=C/c4ccccc4)cc3)CC2)cc1 = 5.02
O=C(/C=C/c1ccccc1)c1ccc(OCCNC2CCN(Cc3ccc(Br)cc3)CC2)cc1 = 4.55
O=C(/C=C/c1ccccc1)c1ccc(OCCNC2CCN(Cc3ccc(Cl)cc3)CC2)cc1 = 4.71
O=C(/C=C/c1ccccc1)c1ccc(OCCNC2CCN(Cc3ccc(F)cc3)CC2)cc1 = 4.58
O=C(/C=C/c1ccccc1)c1ccc(OCCNC2CCN(Cc3ccccc3)CC2)cc1 = 4.66

(Q) Tell me the measured pIC50 of `Cc1ccc(CN2CCC(NCCOc3ccc(C(=O)/C=C/c4ccccc4)cc3)CC2)cc1` , please.
(A) 5.49

(Q) Tell me the measured pIC50 of `O=C(/C=C/c1ccccc1)c1ccc(OCCNC2CCN(Cc3ccc([N+](=O)[O-])cc3)CC2)cc1` , please.
(A) 4.60

* * *

target: Aβ (1–42) (Homo sapiens)
Sequence (P05067 672-713): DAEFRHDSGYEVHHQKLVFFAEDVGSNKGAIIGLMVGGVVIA
metric: pIC50
Reminder that pIC50 is minus the log10 of a molar concentration.

(Q) Item Cc1ccc(CN2CCC(NCCOc3ccc(C(=O)/C=C/c4ccccc4)cc3)CC2)cc1 [8g] with Aβ (1–42) (Homo sapiens) - pIC50?
(A) 4.74

* * *

For Acetylcholinesterase (AChE) (Homo sapiens), measured pIC50 is reported for the entries below.
Reminder that pIC50 is minus the log10 of a molar concentration.

Cc1ccc(CN2CCC(NCCOc3ccc(C(=O)/C=C/c4ccccc4)cc3)CC2)cc1 = 5.95
O=C(/C=C/c1ccccc1)c1ccc(OCCNC2CCN(Cc3ccc(Cl)cc3)CC2)cc1 = 5.00
COc1ccc(CN2CCC(NCCOc3ccc(C(=O)/C=C/c4ccccc4)cc3)CC2)cc1 = 5.37
O=C(/C=C/c1ccccc1)c1ccc(OCCNC2CCN(Cc3ccccc3)CC2)cc1 = 4.49
O=C(/C=C/c1ccccc1)c1ccc(OCCNC2CCN(Cc3ccc(Br)cc3)CC2)cc1 = 4.74

(Q) Item `O=C(/C=C/c1ccccc1)c1ccc(OCCNC2CCN(Cc3ccc([N+](=O)[O-])cc3)CC2)cc1` with Acetylcholinesterase (AChE) (Homo sapiens) - pIC50?
(A) 4.54

(Q) Item `O=C(/C=C/c1ccccc1)c1ccc(OCCNC2CCN(Cc3ccc(F)cc3)CC2)cc1` with Acetylcholinesterase (AChE) (Homo sapiens) - pIC50?
(A) 4.85

* * *

molecular target: β-secretase (Homo sapiens, UniProt P56817)
Sequence (P56817 46-501): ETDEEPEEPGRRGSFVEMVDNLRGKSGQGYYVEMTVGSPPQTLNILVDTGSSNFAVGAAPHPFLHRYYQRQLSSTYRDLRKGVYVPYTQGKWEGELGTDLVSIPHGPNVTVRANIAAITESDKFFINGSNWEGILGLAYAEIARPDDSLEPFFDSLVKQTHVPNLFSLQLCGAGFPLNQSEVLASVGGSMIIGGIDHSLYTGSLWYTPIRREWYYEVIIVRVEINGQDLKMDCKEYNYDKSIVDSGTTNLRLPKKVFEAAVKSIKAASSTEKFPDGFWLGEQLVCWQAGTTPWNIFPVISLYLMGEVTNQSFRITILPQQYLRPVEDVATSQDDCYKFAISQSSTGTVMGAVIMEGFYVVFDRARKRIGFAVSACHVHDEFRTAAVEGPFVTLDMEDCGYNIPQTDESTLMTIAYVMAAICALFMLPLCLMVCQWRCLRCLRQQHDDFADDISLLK
metric: IC50 (µM)
Numeric answer only, unit µM assumed.

(Q) Item Cc1ccc(CN2CCC(NCCOc3ccc(C(=O)/C=C/c4ccccc4)cc3)CC2)cc1 [8g] with β-secretase (Homo sapiens, UniProt P56817) - IC50?
(A) 23.1

* * *

target: Acetylcholinesterase (AChE) (Homo sapiens, UniProt P22303); experiment: AChE inhibition assay; type: biochemical; settings: determined by BuChE/AChE (IC50 ratio)
metric: Selectivity Index (SI)

O=C(/C=C/c1ccccc1)c1ccc(OCCNC2CCN(Cc3ccc(Cl)cc3)CC2)cc1 = 1.93
O=C(/C=C/c1ccccc1)c1ccc(OCCNC2CCN(Cc3ccc(Cl)c(Cl)c3)CC2)cc1 = 1.06

Here's the next entry for you.
(Q) Tell me the measured Selectivity Index (SI) of `Cc1ccc(CN2CCC(NCCOc3ccc(C(=O)/C=C/c4ccccc4)cc3)CC2)cc1` , please.
(A) 2.88
